Consider the following compounds; for each one, report its TGI.
# Test system: CAKI-1 renal
# Measurement Notes: NCI tumour cell line growth inhibition, 48 h
Answers are plain numbers, in µM.

Answered examples (3):
Cc1cnc(C(=O)Nc2nc3ccc(S(=O)(=O)Nc4ccc(C(C)(C)C)cc4)cc3[nH]2)cn1; 16.4
CCOC(=O)C1=C(C)N(NC(=O)Nc2ccccc2)C2(N)N(NC(=O)Nc3ccccc3)C(C)=C(C(=O)OCC)C12C#N (stereo not drawn); 40.1
COc1cc(C(=O)/C=C/c2c[nH]c3ccccc23)cc(OC)c1OC; 29.8

Proceed to the following item.
Ask | Identify the measured TGI of COc1cccc(/C=C\C(=O)c2ccccc2)c1 for CAKI-1 renal.
Reply | 24.8
